Tested on: Yersinia pseudotuberculosis
Test: Effect on T3S in Yersinia pseudotuberculosis 3 pIB29 assessed as inhibition of light emission at 2 uM by luciferase reporter gene assay
# cutoff 20% applies to inhibition; >= gives 1 (yes), < gives 0 (no)

Solved entries (count: 8):
Problem: Reported inhibition at or above 20%? `CC(=O)Oc1c(I)cc(I)cc1C(=O)Nc1cc(Cl)ccc1F`
Solution: 0 (no)

Problem: Reported inhibition at or above 20%? `O=C(Nc1ccc(Br)cc1)c1cc(I)cc(I)c1O`
Solution: 1 (yes)

Problem: Reported inhibition at or above 20%? `CC(=O)Oc1c(I)cc(I)cc1C(=O)Nc1ccc(SC(F)(F)F)cc1`
Solution: 0 (no)

Problem: Reported inhibition at or above 20%? `O=C(Nc1ccc(Cl)cc1)c1cc(I)ccc1O`
Solution: 1 (yes)

Problem: Reported inhibition at or above 20%? `O=C(Nc1ccc(SC(F)(F)F)cc1)c1cc(I)ccc1O`
Solution: 1 (yes)

Problem: Reported inhibition at or above 20%? `O=C(Nc1ccc(F)cc1)c1cc(I)cc(I)c1O`
Solution: 0 (no)

Problem: Reported inhibition at or above 20%? `O=C(Nc1ccc(SC(F)(F)F)cc1)c1c(O)c(Cl)cc(Cl)c1Cl`
Solution: 0 (no)

Problem: Reported inhibition at or above 20%? `O=C(Nc1ccc(Br)cc1)c1cccc(Cl)c1O`
Solution: 0 (no)

More entries:
Problem: Reported inhibition at or above 20%? `CC(=O)Oc1c(Cl)cccc1C(=O)Nc1ccc(SC(F)(F)F)cc1`
Solution: 0 (no)

Problem: Reported inhibition at or above 20%? `O=C(Nc1ccc(SC(F)(F)F)cc1)c1cc(I)cc(I)c1O`
Solution: 1 (yes)

====

Test system: Yersinia pseudotuberculosis
Assay: Effect on T3S in Yersinia pseudotuberculosis 3 pIB29 assessed as inhibition of light emission at 100 uM by luciferase reporter gene assay
# cutoff 10% applies to inhibition; >= gives yes (1), < gives no (0)

Solved entries (count: 3):
Problem: Reported inhibition at or above 10%? `O=C(Nc1ccc(Br)cc1)c1cccc(Cl)c1O`
Solution: yes (1)

Problem: Reported inhibition at or above 10%? `CC(C)(C)c1cc(NC(=O)c2cc(Br)ccc2O)cc(C(C)(C)C)c1`
Solution: no (0)

Problem: Reported inhibition at or above 10%? `COc1cc(Cl)c(C)cc1NC(=O)c1cc(I)cc(I)c1O`
Solution: yes (1)

More entries:
Problem: Reported inhibition at or above 10%? `CC(=O)Oc1ccc(I)cc1C(=O)Nc1ccc(Cl)cc1`
Solution: yes (1)

Problem: Reported inhibition at or above 10%? `CC(=O)Oc1c(Cl)cc(Cl)c(Cl)c1C(=O)Nc1cc(C)cc(C)c1`
Solution: yes (1)

Problem: Reported inhibition at or above 10%? `COc1cc(Cl)c(C)cc1NC(=O)c1cccc(C(C)C)c1OC(C)=O`
Solution: no (0)

====

Test system: Yersinia pseudotuberculosis
Assay: Effect on T3S in Yersinia pseudotuberculosis 3 pIB29 assessed as inhibition of light emission at 50 uM by luciferase reporter gene assay
reportedMetric: inhibition (%)
Answer format: numeric, % implied, no suffix.

`CC(C)(C)c1ccc(NC(=O)c2c(O)c(Cl)cc(Cl)c2Cl)cc1` yielded inhibition of 23

`O=C(Nc1ccc(SC(F)(F)F)cc1)c1cc2cc(Br)ccc2c(Br)c1O` yielded inhibition of 63

`O=C(Nc1ccc(Cl)cc1)c1ccccc1O` yielded inhibition of 99

`CC(=O)Oc1c(I)cc(I)cc1C(=O)Nc1ccc(Br)cc1` yielded inhibition of 94

`CC(C)(C)c1cc(NC(=O)c2cc(Br)ccc2O)cc(C(C)(C)C)c1` yielded inhibition of -4

`CC(=O)Oc1ccc(I)cc1C(=O)Nc1ccc(Cl)cc1` yielded inhibition of 100

`CC(=O)Oc1c(Cl)cc(Cl)c(Cl)c1C(=O)Nc1ccccc1` yielded inhibition of 12

`CC(=O)Oc1c(Br)cc(Br)cc1C(=O)Nc1ccccc1F` yielded inhibition of 61
